Hello, the source for this data is patent US20240117054A1, in case you need it.

Biological target: T1, human FLT3 (hFLT3) expressed on cells (human, UniProt P36888 27-993)
T1 construct: whole, on cells; One molecule for all cell lines that carry human FLT3; also called RMA-hFLT3; FLT3 on REH cells
T1 sequence (looked up): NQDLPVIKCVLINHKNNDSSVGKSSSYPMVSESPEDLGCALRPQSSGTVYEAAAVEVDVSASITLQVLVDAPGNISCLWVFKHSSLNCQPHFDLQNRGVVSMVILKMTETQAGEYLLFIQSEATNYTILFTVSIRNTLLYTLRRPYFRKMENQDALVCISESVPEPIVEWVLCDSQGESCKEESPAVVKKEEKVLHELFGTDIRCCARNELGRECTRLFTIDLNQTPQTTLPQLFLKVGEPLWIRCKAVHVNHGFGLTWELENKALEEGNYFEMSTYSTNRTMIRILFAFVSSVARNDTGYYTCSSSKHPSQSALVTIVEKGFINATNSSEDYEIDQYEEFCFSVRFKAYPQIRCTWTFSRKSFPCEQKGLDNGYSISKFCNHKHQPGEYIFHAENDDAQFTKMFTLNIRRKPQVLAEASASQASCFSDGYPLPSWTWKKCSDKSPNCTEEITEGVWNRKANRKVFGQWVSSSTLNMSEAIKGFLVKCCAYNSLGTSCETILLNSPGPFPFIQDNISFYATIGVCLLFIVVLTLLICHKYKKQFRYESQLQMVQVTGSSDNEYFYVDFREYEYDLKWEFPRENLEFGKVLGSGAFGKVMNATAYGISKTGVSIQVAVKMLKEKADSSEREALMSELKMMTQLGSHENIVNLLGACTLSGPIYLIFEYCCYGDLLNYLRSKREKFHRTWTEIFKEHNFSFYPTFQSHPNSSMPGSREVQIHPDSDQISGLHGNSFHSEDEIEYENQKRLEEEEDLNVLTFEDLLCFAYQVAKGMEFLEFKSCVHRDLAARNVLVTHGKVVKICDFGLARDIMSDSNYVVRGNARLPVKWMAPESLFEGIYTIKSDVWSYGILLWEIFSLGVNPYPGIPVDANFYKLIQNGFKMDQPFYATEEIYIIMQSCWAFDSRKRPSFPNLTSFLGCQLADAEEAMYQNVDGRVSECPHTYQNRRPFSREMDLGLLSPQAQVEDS
Experiment: flow cytometry, purified mAb on RMA-hFLT3 cells
Readings of pEC50 for the listed binders
Expect pEC50 as a plain number equal to -log10 of the molar concentration.

Example binders with recorded pEC50:
| binder | pEC50 |
| --- | --- |
| 1A2.A3 (antibody, V domains shown, Purified murine mAb from a hybridoma subclone) VH: EVQLQESGPELVKPGASVKISCKASGYSFTGYYIHWVKQSPEESLEWIGEIYPNTGITTYNQKFTAKATLTVDKSSNTAYMQLKSLTSEDSAVYYCTRWGDYYGRDYWGQGTSVTVSS VL: DIVLTQSPASLAVSLGQRATISCRASETVDTHGNSFMHWYQQKPGQPPKLLIYRASNLESGIPARFSGSGSRTDFTLTINPVEADDVATYYCQQSNEDPRTFGGGTKLEIK | 9.10 |
| 15A11.C8 (antibody, V domains shown, Purified murine mAb from a hybridoma subclone) VH: EVQLQESGGGLVKTGGSRKLSCAASGFTFSDYGMHWVRHTPEKGLEWVVYISSGGNTIFYTDTVKGRFTISRDNAKNTLFLQMTSLRSEDTAVYFCVRQGYYYAMDYWGQGASVTVSS VL: DIQMTQTTSSLSASLGDRVTIRCRASQDITNYLNWYQQKPDGAVKLLISYTSILQSGVPSRFSGSGSGTDYSLTISNLEQGDVATYFCQQGSSLPWTFGGGTKLEIK | 9.39 |

Next:
# input I'd like to know its pEC50. The binder in question is 11F4.B9 (antibody, V domains shown, Purified murine mAb from a hybridoma subclone) VH: EVQLQESGPELVKPGASVKISCKASGYSFTGYYIHWVKQGPEKSLEWIGEIIPSTGSTIYNQKFKAKATLTVDKSSSTAYLQLKSLTSEDSAVYYCERWGDYYGRDYWGQGTSVTVSS VL: DIVLTQSPASLAVSLGQRATISCRASESVDIYGNSFMHWYQQKPGQPPKLLIYRASNLESGIPARFSGSGSRTDFTLTINPVEADDVATYYCQQSNEDPRTFGGGTKLEIK
# output 9.28
